Data origin, for the record: ChEMBL document CHEMBL4354881

Target: Bromodomain adjacent to zinc finger domain protein 2A (Homo sapiens)
Sequence (Q9UIF9 whole entry, the tested form may be a part): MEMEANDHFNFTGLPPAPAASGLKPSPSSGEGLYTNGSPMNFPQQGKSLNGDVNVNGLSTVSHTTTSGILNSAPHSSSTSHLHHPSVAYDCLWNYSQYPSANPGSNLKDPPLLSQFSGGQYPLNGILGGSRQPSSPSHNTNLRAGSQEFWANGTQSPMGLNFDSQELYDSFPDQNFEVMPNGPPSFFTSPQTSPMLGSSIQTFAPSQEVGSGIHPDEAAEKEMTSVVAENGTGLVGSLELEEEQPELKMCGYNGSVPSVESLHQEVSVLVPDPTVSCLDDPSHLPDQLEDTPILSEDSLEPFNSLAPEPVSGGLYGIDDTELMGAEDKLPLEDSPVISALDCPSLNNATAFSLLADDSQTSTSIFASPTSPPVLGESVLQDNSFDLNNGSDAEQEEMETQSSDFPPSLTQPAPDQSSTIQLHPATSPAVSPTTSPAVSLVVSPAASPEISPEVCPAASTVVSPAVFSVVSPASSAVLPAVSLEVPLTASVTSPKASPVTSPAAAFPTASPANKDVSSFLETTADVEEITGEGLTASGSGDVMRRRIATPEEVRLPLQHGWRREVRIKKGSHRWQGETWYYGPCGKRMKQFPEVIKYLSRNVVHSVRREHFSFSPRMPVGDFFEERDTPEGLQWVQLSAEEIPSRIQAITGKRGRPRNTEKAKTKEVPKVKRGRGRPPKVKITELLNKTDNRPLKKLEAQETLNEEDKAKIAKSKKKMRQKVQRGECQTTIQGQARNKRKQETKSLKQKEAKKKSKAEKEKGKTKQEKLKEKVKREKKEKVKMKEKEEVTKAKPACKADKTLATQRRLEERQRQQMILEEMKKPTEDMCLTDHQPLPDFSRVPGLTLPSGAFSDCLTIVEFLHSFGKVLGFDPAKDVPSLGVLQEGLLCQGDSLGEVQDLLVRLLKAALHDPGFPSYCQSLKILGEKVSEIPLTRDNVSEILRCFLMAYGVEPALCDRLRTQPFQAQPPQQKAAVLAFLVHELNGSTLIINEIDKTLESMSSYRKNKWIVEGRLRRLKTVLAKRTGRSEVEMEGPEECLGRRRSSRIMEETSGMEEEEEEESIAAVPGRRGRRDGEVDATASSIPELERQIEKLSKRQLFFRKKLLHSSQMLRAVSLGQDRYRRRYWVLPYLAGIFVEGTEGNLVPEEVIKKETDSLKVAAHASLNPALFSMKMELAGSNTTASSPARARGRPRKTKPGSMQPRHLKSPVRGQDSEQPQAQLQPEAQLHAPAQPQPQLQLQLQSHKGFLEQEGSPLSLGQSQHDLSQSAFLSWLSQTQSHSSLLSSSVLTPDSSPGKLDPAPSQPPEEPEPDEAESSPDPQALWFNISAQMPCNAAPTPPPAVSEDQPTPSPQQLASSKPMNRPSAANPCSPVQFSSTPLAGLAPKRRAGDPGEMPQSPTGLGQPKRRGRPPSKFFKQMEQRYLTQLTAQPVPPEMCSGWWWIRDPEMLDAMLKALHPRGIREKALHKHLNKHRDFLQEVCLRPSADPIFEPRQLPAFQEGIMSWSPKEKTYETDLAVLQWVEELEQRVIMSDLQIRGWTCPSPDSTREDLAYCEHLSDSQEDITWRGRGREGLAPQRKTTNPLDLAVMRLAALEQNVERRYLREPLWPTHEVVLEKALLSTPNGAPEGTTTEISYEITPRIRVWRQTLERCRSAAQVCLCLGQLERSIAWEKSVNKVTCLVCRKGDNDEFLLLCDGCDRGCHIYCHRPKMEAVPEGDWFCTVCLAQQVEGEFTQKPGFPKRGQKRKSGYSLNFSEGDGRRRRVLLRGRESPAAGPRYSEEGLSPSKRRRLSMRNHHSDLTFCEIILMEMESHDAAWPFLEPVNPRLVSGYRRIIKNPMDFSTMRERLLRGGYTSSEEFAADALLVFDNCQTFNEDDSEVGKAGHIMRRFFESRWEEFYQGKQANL
Experiment: Binding affinity to human partial length BAZ2A (M1792 to L1905 residues) expressed in bacterial expression system by BROMOscan assay
readout: Kd

Asked: Recall and state the measured Kd for `C[C@H]1CCN(S(=O)(=O)c2cc(NC(=O)CN3C(=O)N[C@@](C)(C4CC4)C3=O)ccc2Br)C1` .
Given back: 15.8 nM

* * *

Test: Permeability of the compound by artificial lipid membrane-based method
Type: ADME
Conditions: not told; read-out: permeability
Quick rule: Papp of at least 100 nm/s means TRUE, below that means FALSE.

See these solved cases before continuing.
CC(=O)Nc1ccc(Cl)c(S(=O)(=O)N2CCCC2)c1 | TRUE
CN(C)CC1CCN(S(=O)(=O)c2cc(NC(=O)CN3C(=O)CNC3=O)ccc2Cl)C1 (stereo unspecified) | FALSE
O=C(CN1C(=O)COC1=O)Nc1ccc(Cl)c(S(=O)(=O)N2CCCC2)c1 | FALSE
CC1NC(=O)N(CC(=O)Nc2ccc(Cl)c(S(=O)(=O)N3CCCC3)c2)C1=O (racemic) | FALSE
CN1CCc2c(nnn2CC(=O)Nc2ccc(Cl)c(S(=O)(=O)N3CC[C@H](C4CC4)C3)c2)C1 | TRUE

Asked: Check this compound for Papp at or above 100 nm/s: `CC1(C)NC(=O)N(CC(=O)Nc2ccc(Cl)c(S(=O)(=O)N3CCCC3)c2)C1=O`
Given back: FALSE

Asked: Test whether the compound `O=C(CN1CCCC1=O)Nc1ccc(Cl)c(S(=O)(=O)N2CCCC2)c1` records Papp of 100 nm/s or higher.
Given back: TRUE

Asked: Could you please find out whether `O=C(CN1C(=O)CCC1=O)Nc1ccc(Cl)c(S(=O)(=O)N2CCCC2)c1` has Papp that meets 100 nm/s or exceeds it?
Given back: FALSE

Asked: In plain terms: is recorded Papp at least 100 nm/s for `CN1CCc2c(nnn2CC(=O)Nc2ccc(Br)c(S(=O)(=O)N3CC[C@H](C4CC4)C3)c2)C1` ?
Given back: TRUE

* * *

Target: Chromatin remodeling regulator CECR2 (Homo sapiens)
Assay: Binding affinity to CECR2 (unknown origin) by ITC analysis
readout: pKd
Remember the convention: pKd equals -log10 of concentration in molar.

Asked: Quick one: give measured pKd for `CN(C)CCCOc1ccc(-c2cc(NCCCn3cccn3)nc(S(C)(=O)=O)n2)cc1`
Given back: 8.00

* * *

Molecular target: ATPase family AAA domain-containing protein 2 (Homo sapiens, UniProt Q6PL18)
Sequence (Q6PL18 whole entry): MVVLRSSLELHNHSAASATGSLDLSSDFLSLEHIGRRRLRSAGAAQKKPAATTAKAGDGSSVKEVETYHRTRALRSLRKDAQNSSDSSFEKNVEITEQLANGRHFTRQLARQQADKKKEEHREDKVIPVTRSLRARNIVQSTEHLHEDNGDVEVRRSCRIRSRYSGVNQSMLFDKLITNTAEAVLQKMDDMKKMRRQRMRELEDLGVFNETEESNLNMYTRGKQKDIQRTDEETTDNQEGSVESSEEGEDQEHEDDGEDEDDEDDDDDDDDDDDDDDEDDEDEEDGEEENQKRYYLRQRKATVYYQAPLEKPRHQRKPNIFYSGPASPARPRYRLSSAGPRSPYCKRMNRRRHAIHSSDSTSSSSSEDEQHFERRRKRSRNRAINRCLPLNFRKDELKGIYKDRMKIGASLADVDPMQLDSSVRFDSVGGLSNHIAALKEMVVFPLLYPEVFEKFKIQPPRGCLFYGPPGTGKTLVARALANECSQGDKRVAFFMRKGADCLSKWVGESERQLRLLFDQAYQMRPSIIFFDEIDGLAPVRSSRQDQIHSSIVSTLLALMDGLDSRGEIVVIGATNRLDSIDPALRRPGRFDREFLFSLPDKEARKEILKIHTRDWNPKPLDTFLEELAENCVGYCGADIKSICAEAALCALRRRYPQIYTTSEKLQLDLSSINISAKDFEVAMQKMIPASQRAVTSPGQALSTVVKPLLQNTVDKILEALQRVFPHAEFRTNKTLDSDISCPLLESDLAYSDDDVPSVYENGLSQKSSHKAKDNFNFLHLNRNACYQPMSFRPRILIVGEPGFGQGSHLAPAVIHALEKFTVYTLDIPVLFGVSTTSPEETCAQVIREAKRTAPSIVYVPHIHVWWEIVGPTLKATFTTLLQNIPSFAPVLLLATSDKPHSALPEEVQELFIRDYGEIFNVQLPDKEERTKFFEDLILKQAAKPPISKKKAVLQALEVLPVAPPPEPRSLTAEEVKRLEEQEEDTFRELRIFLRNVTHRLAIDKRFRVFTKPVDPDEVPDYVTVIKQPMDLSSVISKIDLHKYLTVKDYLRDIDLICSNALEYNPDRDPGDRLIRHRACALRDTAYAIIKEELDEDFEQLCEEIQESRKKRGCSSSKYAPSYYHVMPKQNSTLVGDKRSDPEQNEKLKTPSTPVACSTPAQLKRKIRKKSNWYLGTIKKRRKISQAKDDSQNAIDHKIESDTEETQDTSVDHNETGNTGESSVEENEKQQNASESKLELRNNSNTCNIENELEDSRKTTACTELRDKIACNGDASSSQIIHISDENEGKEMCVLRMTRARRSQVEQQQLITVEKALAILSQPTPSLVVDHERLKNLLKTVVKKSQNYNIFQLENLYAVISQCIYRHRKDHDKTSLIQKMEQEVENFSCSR
Listing of entries alongside the reported IC50.
Kindly answer with a numeric value in µM, unit omitted.

Example cases with answers are listed next.
C[C@@H]1CN(S(=O)(=O)c2cc(NC(=O)CN3C(=O)CNC3=O)ccc2Cl)C[C@@H]1C | 2
C[C@@]1(C2CC2)NC(=O)N(CC(=O)Nc2ccc(Br)c(S(=O)(=O)N3CCCC3)c2)C1=O | 0.251
C[C@H]1CCN(S(=O)(=O)c2cc(NC(=O)Cn3nnc4c3CN(C)CC4)ccc2Br)C1 | 2
CCC1CCN(S(=O)(=O)c2cc(NC(=O)CN3C(=O)CNC3=O)ccc2Cl)C1 (racemic) | 0.631

Moving on to the next compound.
Asked: Read the entry `CN(C)S(=O)(=O)c1cc(NC(=O)CN2C(=O)CNC2=O)ccc1Cl` and write its reported IC50.
Given back: 12.6

* * *

Assay: Lipophilicity, log D of the compound at pH 7.4 by chromatographic method
Format: physicochemical
Conditions: buffer
readout: chromatographic logD

Asked: Name the recorded chromatographic logD of the compound listed here: `C[C@H]1CCN(S(=O)(=O)c2cc(NC(=O)Cn3nnc4c3CCN(CC(F)(F)F)C4)ccc2Br)C1`
Given back: 5.3

* * *

Target: Bromodomain-containing protein 4 (Homo sapiens, UniProt O60885, Y390A)
Assay: Displacement of Alexa Fluor 647-labeled ligand from BRD4 BD1 Y390A mutant (1 to 477 residue) (unknown origin) measured after 30 mins by TR-FRET assay
readout: IC50

Please review the entries below; each comes with its answer.
C[C@@]1(C2CC2)NC(=O)N(CC(=O)Nc2ccc(Br)c(S(=O)(=O)N3CCCC3)c2)C1=O | > 50.1 µM
C[C@@H]1CN(S(=O)(=O)c2cc(NC(=O)CN3C(=O)NC(C)(C4CC4)C3=O)ccc2Br)C[C@H]1C (relative stereo) | 39.8 µM
CC1NC(=O)N(CC(=O)Nc2ccc(Cl)c(S(=O)(=O)N3CCCC3)c2)C1=O (racemic) | > 50.1 µM
C[C@H]1CCN(S(=O)(=O)c2cc(NC(=O)Cc3coc4ccccc34)ccc2Br)C1 | > 50.1 µM
CCCc1cnnn1CC(=O)Nc1ccc(Br)c(S(=O)(=O)N2CC[C@H](C)C2)c1 | 10 µM

Asked: Quickly give me recorded IC50 for `C[C@@H]1CCN(S(=O)(=O)c2cc(NC(=O)CN3C(=O)CNC3=O)ccc2Cl)C1`
Given back: > 50.1 µM

* * *

Reported log10 of IC50 values are given for each entry in this list.
Target: Chromatin remodeling regulator CECR2 (Homo sapiens, UniProt Q9BXF3)
Sequence (Q9BXF3 whole entry, the tested form may be a part): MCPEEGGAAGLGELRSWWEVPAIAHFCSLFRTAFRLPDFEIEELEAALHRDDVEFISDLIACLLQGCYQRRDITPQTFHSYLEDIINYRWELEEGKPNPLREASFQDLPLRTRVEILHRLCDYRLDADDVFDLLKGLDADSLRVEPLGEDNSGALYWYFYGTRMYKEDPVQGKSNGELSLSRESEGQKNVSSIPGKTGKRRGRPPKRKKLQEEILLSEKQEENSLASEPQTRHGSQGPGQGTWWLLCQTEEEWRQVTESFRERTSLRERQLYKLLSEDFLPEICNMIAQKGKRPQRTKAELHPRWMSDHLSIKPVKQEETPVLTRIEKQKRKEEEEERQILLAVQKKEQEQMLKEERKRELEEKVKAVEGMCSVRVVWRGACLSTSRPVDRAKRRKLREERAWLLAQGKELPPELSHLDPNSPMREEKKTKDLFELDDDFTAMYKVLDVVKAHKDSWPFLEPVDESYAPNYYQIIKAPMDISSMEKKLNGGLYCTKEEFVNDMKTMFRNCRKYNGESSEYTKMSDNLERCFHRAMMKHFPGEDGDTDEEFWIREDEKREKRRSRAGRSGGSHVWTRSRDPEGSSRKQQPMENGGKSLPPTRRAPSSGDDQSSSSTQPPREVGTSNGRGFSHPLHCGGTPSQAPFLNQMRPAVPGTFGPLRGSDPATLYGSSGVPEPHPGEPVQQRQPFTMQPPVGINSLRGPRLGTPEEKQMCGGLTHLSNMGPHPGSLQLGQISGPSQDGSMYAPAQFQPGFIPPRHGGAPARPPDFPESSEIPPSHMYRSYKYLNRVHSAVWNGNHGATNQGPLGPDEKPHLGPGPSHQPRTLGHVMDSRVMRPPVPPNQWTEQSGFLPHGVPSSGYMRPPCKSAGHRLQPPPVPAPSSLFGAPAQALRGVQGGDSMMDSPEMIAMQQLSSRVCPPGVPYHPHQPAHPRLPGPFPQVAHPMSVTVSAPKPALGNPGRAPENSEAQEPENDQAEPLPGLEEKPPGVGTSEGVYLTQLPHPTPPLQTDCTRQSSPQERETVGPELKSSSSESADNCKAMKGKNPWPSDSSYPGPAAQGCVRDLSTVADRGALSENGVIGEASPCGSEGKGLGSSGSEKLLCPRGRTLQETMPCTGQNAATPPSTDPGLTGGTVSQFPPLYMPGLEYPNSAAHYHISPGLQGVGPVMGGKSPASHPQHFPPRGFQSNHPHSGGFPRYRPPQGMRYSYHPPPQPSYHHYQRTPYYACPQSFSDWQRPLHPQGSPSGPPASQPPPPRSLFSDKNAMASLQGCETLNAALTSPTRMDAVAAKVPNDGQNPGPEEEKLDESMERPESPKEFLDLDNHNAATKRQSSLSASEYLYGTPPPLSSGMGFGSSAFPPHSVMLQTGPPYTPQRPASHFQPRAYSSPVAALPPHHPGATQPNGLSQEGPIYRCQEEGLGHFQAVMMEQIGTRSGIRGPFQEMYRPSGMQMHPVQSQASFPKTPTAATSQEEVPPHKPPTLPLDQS
Assay: Displacement of Alexa Fluor 647-labeled GSK tracer from FLAG-6His-Tev-fused CECR2 (424 to 543 residue) (unknown origin) measured after 15 mins by TR-FRET assay
Annotation: log10 of IC50, µM basis.

Some molecules with known log10 of IC50 results, for comparison:
CN1CCc2c(nnn2CC(=O)Nc2ccc(Cl)c(S(=O)(=O)N3CC[C@@H](C4CC4)C3)c2)C1 | -0.90
CC1(C)NC(=O)N(CC(=O)Nc2ccc(Cl)c(S(=O)(=O)N3CCCC3)c2)C1=O | 0.70

Asked: Supply log10 of IC50 measured with Chromatin remodeling regulator CECR2 (Homo sapiens, UniProt Q9BXF3) for `C[C@H]1CCN(S(=O)(=O)c2cc(NC(=O)Cc3noc4ccccc34)ccc2Br)C1` .
Given back: -0.60

Asked: // fetch log10 of IC50 for `O=C(CN1C(=O)CCC1=O)Nc1ccc(Cl)c(S(=O)(=O)N2CCCC2)c1` ; system: Chromatin remodeling regulator CECR2 (Homo sapiens, UniProt Q9BXF3)
Given back: 0.60
